Origin of the recorded values: patent US5739334A

Answer each item with its documented DL50.
- procedure.summary: DL50
- Assay type: in vivo
- Set-up: unit not given beside the values
- test.conditions: species, route and unit not given

Items follow; give DL50 for each.
1. CC(CCn1nc2ccccn2c1=O)N1CCN(c2cccc(Cl)c2)CC1 (centres unmarked)
2. CC1CN(c2cccc(Cl)c2)CCN1CCCn1nc2ccccn2c1=O (centres unmarked)
3. CC1CN(CCCn2nc3ccccn3c2=O)CCN1c1cccc(Cl)c1 (centres unmarked)
4. CC(CN1CCN(c2cccc(Cl)c2)CC1)Cn1nc2ccccn2c1=O (centres unmarked)
5. O=c1n(CCCN2CCN(c3cccc(Cl)c3)CC2)nc2ccccn12

1. ≤ 300
2. 300
3. ≤ 600
4. ≤ 600
5. ≥ 200

* * *

- Tested on: serotonin 2
- procedure.summary: Chemical bond studies: interference with serotonin 2 receptor (% inhibition)
- Type: binding
- test.conditions: C = 10^-5 M; table 2
Please go through the items and note down their serotonine 2 (% inhibition).
One number for each entry, in %.

Consider the reported serotonine 2 (% inhibition) for these molecules:
CC1CN(CCCn2nc3ccccn3c2=O)CCN1c1cccc(Cl)c1 (stereo not shown) [(I) R = R' = R" = H; R"' = CH3] = 98
CC(CCn1nc2ccccn2c1=O)N1CCN(c2cccc(Cl)c2)CC1 (stereo not shown) [(I) R = R" = R"' = H; R' = CH3] = 100
CC(CN1CCN(c2cccc(Cl)c2)CC1)Cn1nc2ccccn2c1=O (stereo not shown) [(I) R' = R" = R"' = H; R = CH3] = 100

Param request: serotonine 2 (% inhibition) | system serotonin 2 | item CC1CN(c2cccc(Cl)c2)CCN1CCCn1nc2ccccn2c1=O (stereo not shown) [(I) R = R' = R"' = H; R" = CH3]
100

* * *

Provide the recorded alpha 1 (% inhibition) for the entries that follow.
- Tested on: alpha 1
- procedure.summary: Chemical bond studies: interference with alpha 1 receptor (% inhibition)
- Assay type: binding
- test.conditions: C = 10^-5 M; table 2
Note: state the figure and append the unit.

Solved cases (3 shown):
CC1CN(CCCn2nc3ccccn3c2=O)CCN1c1cccc(Cl)c1 (stereo not shown) = 85%
CC(CN1CCN(c2cccc(Cl)c2)CC1)Cn1nc2ccccn2c1=O (stereo not shown) = 88%
CC(CCn1nc2ccccn2c1=O)N1CCN(c2cccc(Cl)c2)CC1 (stereo not shown) = 91%

Could you now look at the following compound, please?
Please list alpha 1 (% inhibition) recorded for the compound CC1CN(c2cccc(Cl)c2)CCN1CCCn1nc2ccccn2c1=O (stereo not shown)
96%

* * *

- Tested on: alpha 1
- procedure.summary: Chemical bond studies: interference with alpha 1 receptor (% inhibition)
- Type: binding
- test.conditions: C = 10^-7 M; table 2
Assign alpha 1 (% inhibition) to each entry below.
Give bare numbers, in %.

CC(CCn1nc2ccccn2c1=O)N1CCN(c2cccc(Cl)c2)CC1 (stereo not shown) = 26
CC1CN(c2cccc(Cl)c2)CCN1CCCn1nc2ccccn2c1=O (stereo not shown) = 37
CC(CN1CCN(c2cccc(Cl)c2)CC1)Cn1nc2ccccn2c1=O (stereo not shown) = 27

Consider the additional molecule presented here.
Given the molecule CC1CN(CCCn2nc3ccccn3c2=O)CCN1c1cccc(Cl)c1 (stereo not shown) , write its reported alpha 1 (% inhibition).
20

* * *

- Test system: serotonin 2
- procedure.summary: Chemical bond studies: interference with serotonin 2 receptor (% inhibition)
- Format: binding
- test.conditions: C = 10^-7 M; table 2
quantity.name: serotonine 2 (% inhibition) (%)
One number for each entry, in %.

Answered cases to consult:
CC(CN1CCN(c2cccc(Cl)c2)CC1)Cn1nc2ccccn2c1=O (stereo not shown) = 62
CC1CN(c2cccc(Cl)c2)CCN1CCCn1nc2ccccn2c1=O (stereo not shown) = 69
CC1CN(CCCn2nc3ccccn3c2=O)CCN1c1cccc(Cl)c1 (stereo not shown) = 68

Give measured serotonine 2 (% inhibition) for CC(CCn1nc2ccccn2c1=O)N1CCN(c2cccc(Cl)c2)CC1 (stereo not shown) (serotonin 2).
59
